Reference source for all entries: paper PMC9927415

Target: TXK (Homo sapiens)
Construct: purchased DiscoverX (KINOMEscan)
Sequence (P42681 whole entry): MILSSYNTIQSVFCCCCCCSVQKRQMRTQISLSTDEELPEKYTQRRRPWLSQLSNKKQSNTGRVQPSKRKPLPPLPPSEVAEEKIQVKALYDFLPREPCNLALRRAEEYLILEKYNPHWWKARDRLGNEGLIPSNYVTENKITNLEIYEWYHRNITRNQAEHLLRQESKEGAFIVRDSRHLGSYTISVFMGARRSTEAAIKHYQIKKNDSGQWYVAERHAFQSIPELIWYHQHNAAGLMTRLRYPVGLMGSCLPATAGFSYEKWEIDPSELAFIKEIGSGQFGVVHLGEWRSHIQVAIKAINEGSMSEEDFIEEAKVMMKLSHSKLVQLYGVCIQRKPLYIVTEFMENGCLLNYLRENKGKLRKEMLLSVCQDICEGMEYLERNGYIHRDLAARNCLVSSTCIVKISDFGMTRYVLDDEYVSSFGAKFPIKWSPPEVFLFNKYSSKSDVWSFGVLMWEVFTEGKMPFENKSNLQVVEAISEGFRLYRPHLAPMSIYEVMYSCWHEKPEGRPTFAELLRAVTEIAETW
Assay: KINOMEscan competitive binding
Conditions: n=1, read-out: Percent inhibition, TXK

{"compound": "Fc1cccc(COc2ccc(Nc3ncnc4c3CN(CCN3CCOCC3)CC4)cc2Cl)c1 [Compound 6]", "inhibition at 10 µM / %": 0}
{"compound": "CN1CCN(c2ccc(Nc3nccc(-c4cnn5ncccc45)n3)cc2C#N)CC1 [Compound 1]", "inhibition at 10 µM / %": 0}
{"compound": "COc1ccc(Nc2nccc(-c3cnn4ncccc34)n2)cc1 [Compound 2]", "inhibition at 10 µM / %": 0}
{"compound": "Nc1ncc2c(-c3ccncc3)c[nH]c2n1 [Compound 11]", "inhibition at 10 µM / %": 0}
{"compound": "COc1cc(Nc2nccc(-c3sc(N)nc3-c3cccc(NC(=O)c4c(F)cccc4F)c3)n2)cc(OC)c1OC [Compound 7]", "inhibition at 10 µM / %": 90.4}
{"compound": "Cc1ccc(O)cc1N(C)c1ccnc(Nc2cccc(S(N)(=O)=O)c2)n1 [Compound 4]", "inhibition at 10 µM / %": 100}
{"compound": "Cc1ccc(O)cc1Nc1ccnc(Nc2cccc(C(N)=O)c2)n1 [Compound 3]", "inhibition at 10 µM / %": 100}
{"compound": "C[C@@H](Oc1cc(-c2cnc3ccccn23)sc1C(N)=O)c1ccccc1Cl [Compound 8]", "inhibition at 10 µM / %": 0}
{"compound": "Clc1ccc(Nc2ncc(-c3ccccc3)s2)cc1 [Compound 10]", "inhibition at 10 µM / %": 0}
{"compound": "c1ccc(COc2cccc(-c3ccnc4[nH]ccc34)c2)cc1 [Compound 9]", "inhibition at 10 µM / %": 0}
